- experimental_system: steady-state microtubules (MAP-rich)
- protocol_description: Binding of [3H]S-methyl DM1 to steady-state microtubules
- Design: species or system bovine
- condition_description: read-out: KD, low affinity sites on microtubules and sedimentable aggregates; higher drug concentrations (0.1 μmol/L to 4 μmol/L)
pKd: −log10 of the molar value.
property: pKd

INSERT INTO results (structure_as_smiles, numeric_readout) VALUES
  ('COc1cc2cc(c1Cl)N(C)C(=O)C[C@H](OC(=O)[C@H](C)N(C)C(=O)CCSC)[C@]1(C)O[C@H]1[C@H](C)[C@@H]1C[C@@](O)(NC(=O)O1)[C@H](OC)/C=C/C=C(\C)C2', 5.66);
